molecular target: recombinant human MAO-A (monoamine oxidase-A) (Homo sapiens); construct: purchased Sigma-Aldrich; assay: Amplex Red HRP-coupled amine oxidase activity evaluation, recombinant human MAO-A; assay type: biochemical; details: substrate 0.5 mM tyramine; read-out: Inhibitory Activity (IC50, nM) MAO-A
Sequence (P21397 whole entry): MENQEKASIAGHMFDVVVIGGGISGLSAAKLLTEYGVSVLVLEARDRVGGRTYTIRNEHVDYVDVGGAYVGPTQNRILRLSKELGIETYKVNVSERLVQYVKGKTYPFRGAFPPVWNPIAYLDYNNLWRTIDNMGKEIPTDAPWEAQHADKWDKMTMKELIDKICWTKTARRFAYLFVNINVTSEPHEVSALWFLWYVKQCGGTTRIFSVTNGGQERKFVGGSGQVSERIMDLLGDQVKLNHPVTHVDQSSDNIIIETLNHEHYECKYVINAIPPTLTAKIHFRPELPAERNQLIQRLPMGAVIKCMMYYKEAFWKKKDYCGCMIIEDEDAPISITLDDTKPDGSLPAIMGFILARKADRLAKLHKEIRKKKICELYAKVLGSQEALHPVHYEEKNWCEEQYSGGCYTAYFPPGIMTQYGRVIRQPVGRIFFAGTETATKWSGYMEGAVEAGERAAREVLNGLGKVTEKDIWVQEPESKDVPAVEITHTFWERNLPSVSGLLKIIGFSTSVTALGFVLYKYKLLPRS
Structures can show the parent of a compound that is named as a salt.
For each record, write down the corresponding IC50.
One number for each entry, in nM.

>  <compound>
CS(=O)(=O)c1ccc(-c2ccc(Cn3nnn(CC(CN)=C(F)F)c3=O)s2)cc1 [Example 43, trifluoroacetate]

>  <testTarget>
recombinant human MAO-A (monoamine oxidase-A) (Homo sapiens)

>  <resultUnits>
nM

>  <resultNumber>
72800

$$$$

Kindly review the next compound as well.
query: Which IC50 value is on record for CN(C)c1ccc(-c2cccc(Cn3nnn(CC(CN)=C(F)F)c3=O)c2)cn1 [Example 29, trifluoroacetate] ?
result: 80100
